B1: library; numbered along this chain (parent)
chain: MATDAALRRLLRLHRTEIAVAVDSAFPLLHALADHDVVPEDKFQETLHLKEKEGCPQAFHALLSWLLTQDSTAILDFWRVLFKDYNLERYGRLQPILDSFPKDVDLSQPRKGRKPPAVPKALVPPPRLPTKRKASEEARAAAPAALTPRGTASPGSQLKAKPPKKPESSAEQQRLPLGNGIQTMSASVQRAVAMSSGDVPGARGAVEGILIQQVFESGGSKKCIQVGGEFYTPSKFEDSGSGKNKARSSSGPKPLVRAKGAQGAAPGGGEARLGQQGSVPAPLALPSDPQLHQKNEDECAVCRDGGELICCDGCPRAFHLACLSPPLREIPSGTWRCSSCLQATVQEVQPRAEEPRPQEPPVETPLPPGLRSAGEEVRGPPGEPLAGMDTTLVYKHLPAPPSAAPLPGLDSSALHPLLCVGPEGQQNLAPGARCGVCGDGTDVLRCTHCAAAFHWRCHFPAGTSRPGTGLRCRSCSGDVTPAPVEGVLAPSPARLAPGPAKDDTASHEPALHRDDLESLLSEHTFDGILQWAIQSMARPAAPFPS

Variants of: B1
run description: AIRE transcriptional activation functional score (insulin promoter-GFP; nonsense median 0, synonymous median 1) (normalised score); higher = higher AIRE activity (more reporter activation)
cond: with insulin promoter-GFP reporter in HEK293
recorded endpoint: AIRE transcriptional activation functional score

| mutant label | numeric value |
| --- | --- |
| H448L | 1.07 |
| P289K | 1.39 |
| D503C | 0.896 |
| P126K | 1.08 |
| E45G | 0.0251 |
| Q189W | -1.03 |
| G486E | 0.566 |
| D36F | -0.636 |
| A482G | 1.31 |
| C337D | 1.68 |
| A152Q | 0.894 |
| E229V | 0.158 |
| I74S | -0.0735 |
| A284I | 1.23 |
| V206K | 0.691 |
| F100Y | -0.017 |
| E363P | 0.843 |
| R303L | 1.12 |
| L13D | -0.291 |
| T232M | 1.22 |
| S135A | 2.31 |
| G435F | 0.364 |
| G219T | 1.01 |
| I224D | 0.864 |
| E517A | -0.0659 |
| P129T | 1.17 |
| D238V | 1.23 |
| P398K | 1.04 |
| L392G | 0.912 |
| F230R | 0.603 |
| G180T | 0.839 |
| E508L | 0.506 |
| L392E | 0.303 |
| I211Y | 1.04 |
| A532Q | 0.186 |
| D502Q | 0.924 |
| S506R | 0.768 |
| D439Q | 0.923 |
| L320I | 0.729 |
| G260H | 1.19 |
| N427G | 1 |
| T68A | 0.312 |
| I96G | -0.689 |
| G313V | 1.22 |
| L87T | 0.00113 |
| M536E | 0.588 |
